SYSTEM: Acetylcholine-binding protein (Lymnaea stagnalis)
Sequence (P58154 whole entry): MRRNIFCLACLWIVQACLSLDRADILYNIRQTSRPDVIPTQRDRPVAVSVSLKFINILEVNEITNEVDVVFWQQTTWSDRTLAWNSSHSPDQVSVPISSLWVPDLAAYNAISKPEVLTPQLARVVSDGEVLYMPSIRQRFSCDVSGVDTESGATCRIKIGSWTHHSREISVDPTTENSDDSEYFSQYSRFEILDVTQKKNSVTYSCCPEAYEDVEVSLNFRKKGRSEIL
Field 'label' (enum: label 1 / label 0). Set to label 1 when Ki is strictly under 10 nM; else label 0.

Example entries and their recorded answers appear below.
• Clc1cccc(CC2(COc3ccc(Cl)nc3)CCCNC2)c1 (stereo unspecified) = label 1
• FC(F)(F)c1cccc(CC2(COc3cccnc3)CCCNC2)c1 (stereo unspecified) = label 1
• FC(F)(F)c1ccc(CC2(COc3cccnc3)CCCNC2)cc1 (stereo unspecified) = label 0
• Cc1ccccc1CC1(COc2cccnc2)CCCNC1 (stereo unspecified) = label 0
• Clc1cccc(CC2(COc3cccnc3)CCCNC2)c1 (stereo unspecified) = label 1

Given Cc1cccc(CC2(COc3cccnc3)CCCNC2)c1 (stereo unspecified) , is recorded Ki strictly lower than 10 nM? label 0

----------
ASSAY_COMMENT: Half life in ICR mouse at 2 mg/kg, iv
Type: ADME, organism-based
STUDY_CONDITIONS: in vivo
REPORTED_ENDPOINT: half-life (min)
Just the number in min, nothing appended.

Value lookup for half-life; key = `Clc1ccc(C[C@@]2(COc3cccnc3)CCCNC2)cc1Cl` 72

----------
Efficacy listing for selected compounds.
SYSTEM: Neuronal acetylcholine receptor subunit alpha-7 (Homo sapiens)
ASSAY_COMMENT: Partial agonist activity at human alpha7 nAChR at 100 uM at -60 mV holding potential incubated for 1 sec followed by 60 secs compound washout relative to acetylcholine
Just the number in %, nothing appended.

• Clc1ccccc1CC1(COc2cccnc2)CCCNC1 (configuration not stated) = 16.8
• Clc1cccc(CC2(COc3cccnc3)CCCNC2)c1 (configuration not stated) = 33.8

I'm curious: which Efficacy was measured for FC(F)(F)c1ccc(CC2(COc3cccnc3)CCCNC2)cc1 (configuration not stated) tested on Neuronal acetylcholine receptor subunit alpha-7 (Homo sapiens)? 17.5

Next compound: OCCCCC#Cc1ccc(OCC2(Cc3cccc(Cl)c3)CCCNC2)cn1 (configuration not stated) 8.5

Next compound: Clc1ccc(CC2(COc3cccnc3)CCCNC2)cc1 (configuration not stated) 18.2

Next compound: c1ccc(-c2ccc(CC3(COc4cccnc4)CCCNC3)cc2)cc1 (configuration not stated) 7.9

Next compound: Clc1cccc(CC2(COc3cccnc3)CCCNC2)c1Cl (configuration not stated) 19.5

Next compound: `Clc1ccc(C[C@@]2(COc3cccnc3)CCCNC2)cc1Cl` 33.3

Next compound: FC(F)(F)c1ccccc1CC1(COc2cccnc2)CCCNC1 (configuration not stated) 13.5

----------
ASSAY_COMMENT: AUC (0 to infinity) in ICR mouse at 2 mg/kg, iv
Type: ADME, organism-based
Parameters: dose 2 mg/kg, route intravenous, time infinity
STUDY_CONDITIONS: in vivo
REPORTED_ENDPOINT: AUC(0-inf) (µM·h)
Just the number in µM·h, nothing appended.

Value lookup for AUC(0-inf); key = `Clc1ccc(C[C@@]2(COc3cccnc3)CCCNC2)cc1Cl` 0.7

----------
ASSAY_COMMENT: Tmax in ICR mouse at 2 mg/kg, iv
Assay type: ADME, organism-based
STUDY_CONDITIONS: in vivo
REPORTED_ENDPOINT: Tmax (min)
Just the number in min, nothing appended.

Value lookup for Tmax; key = `Clc1ccc(C[C@@]2(COc3cccnc3)CCCNC2)cc1Cl` 4.8

----------
ASSAY_COMMENT: Ratio of drug level in blood to plasma in ICR mouse at 2 mg/kg, iv after 4 hrs
Type: ADME, organism-based
STUDY_CONDITIONS: blood and plasma
REPORTED_ENDPOINT: blood plasma ratio at 4 h
Form field (numeric): enter value without unit.

Value lookup for blood plasma ratio at 4 h; key = `Clc1ccc(C[C@@]2(COc3cccnc3)CCCNC2)cc1Cl` 8.8

----------
SYSTEM: Acetylcholine-binding protein (Lymnaea stagnalis)
pKi: −log10 of the molar value.
Would you please tag the item y when its pKi is 8 or above, and n when it is below?

Example entries and their recorded answers appear below.
* OCCCC#Cc1ccc(OCC2(Cc3cccc(Cl)c3)CCCNC2)cn1 (stereo unspecified) | n
* Clc1ccc(C[C@]2(COc3cccnc3)CCCNC2)cc1Cl | n

Given `Clc1ccc(C[C@@]2(COc3cccnc3)CCCNC2)cc1Cl` , state whether its pKi is at least 8. y

----------
Observed Ki values for Acetylcholine-binding protein (Lymnaea stagnalis) are listed in what follows.
Just the number in nM, nothing appended.

* Cc1ccc(CC2(COc3cccnc3)CCCNC2)cc1 (stereo not given) | 16.5
* Clc1cccc(CC2(COc3cncnc3)CCCNC2)c1 (stereo not given) | 5.22
* OCCCCC#Cc1cncc(OCC2(Cc3cccc(Cl)c3)CCCNC2)c1 (stereo not given) | 3.47
* Clc1ccc(CC2(COc3cccnc3)CCCNC2)cc1Cl (stereo not given) | 2.27

Query compound follows.
Value lookup for Ki; key = FC(F)(F)c1ccccc1CC1(COc2cccnc2)CCCNC1 (stereo not given) 17.2

----------
inhibition listing for selected compounds.
SYSTEM: Neuronal acetylcholine receptor subunit alpha-7 (Homo sapiens)
ASSAY_COMMENT: Antagonist activity at human alpha7 nAChR assessed as inhibition of acetylcholine-induced response at 100 uM at -60 mV holding potential incubated for 30 secs followed by acetylcholine addition and subsequent compound washout for 30 secs relative to acetylcholine
Just the number in %, nothing appended.

* c1ccc(-c2ccc(CC3(COc4cccnc4)CCCNC3)cc2)cc1 (centres undefined) | 96.5
* Clc1ccc(CC2(COc3cccnc3)CCNCC2)cc1Cl | 94
* Clc1ccc(C[C@]2(COc3cccnc3)CCCNC2)cc1Cl | 90.8

Value lookup for inhibition; key = OCCCCC#Cc1cncc(OCC2(Cc3cccc(Cl)c3)CCCNC2)c1 (centres undefined) 97.3

----------
ASSAY_COMMENT: Half life in ICR mouse at 10 mg/kg, po
Format: ADME, organism-based
STUDY_CONDITIONS: in vivo
REPORTED_ENDPOINT: half-life (h)
Just the number in h, nothing appended.

Value lookup for half-life; key = `Clc1ccc(C[C@@]2(COc3cccnc3)CCCNC2)cc1Cl` 1.7

----------
SYSTEM: Neuronal acetylcholine receptor subunit alpha-7 (Homo sapiens)
ASSAY_COMMENT: Partial agonist activity at human alpha7 nAChR expressed in Xenopus laevis oocytes at holding potential of -90 mV by patch clamp electrophysiological method
Format: cell-based
REPORTED_ENDPOINT: EC50 (nM)
Just the number in nM, nothing appended.

Value lookup for EC50; key = `Cc1ccc(-c2ccc(O[C@H]3CN4CCC3CC4)cn2)cc1` 39

----------
inhibition listing for selected molecules.
SYSTEM: Neuronal acetylcholine receptor subunit alpha-7 (Homo sapiens, UniProt P36544)
Sequence (P36544 whole entry): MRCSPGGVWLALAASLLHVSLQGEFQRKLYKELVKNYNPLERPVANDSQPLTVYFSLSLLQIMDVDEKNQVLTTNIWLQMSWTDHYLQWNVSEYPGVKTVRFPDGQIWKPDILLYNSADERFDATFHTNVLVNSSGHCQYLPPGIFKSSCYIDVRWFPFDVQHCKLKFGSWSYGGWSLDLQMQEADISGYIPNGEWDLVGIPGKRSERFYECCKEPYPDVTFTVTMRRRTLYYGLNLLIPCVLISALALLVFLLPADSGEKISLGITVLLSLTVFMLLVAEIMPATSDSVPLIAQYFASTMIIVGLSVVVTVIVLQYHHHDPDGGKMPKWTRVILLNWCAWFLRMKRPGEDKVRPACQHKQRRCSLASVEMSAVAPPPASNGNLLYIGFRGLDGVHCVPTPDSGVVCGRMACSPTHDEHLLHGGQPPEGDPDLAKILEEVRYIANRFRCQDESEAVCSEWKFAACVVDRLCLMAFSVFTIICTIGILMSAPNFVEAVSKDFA
ASSAY_COMMENT: Antagonist activity at human alpha7 nAChR assessed as inhibition of acetylcholine-induced response at 1 uM at -60 mV holding potential incubated for 30 secs followed by acetylcholine addition and subsequent compound washout for 30 secs relative to acetylcholine
Just the number in %, nothing appended.

// worked examples, inhibition included
* c1ccc(-c2ccc(CC3(COc4cccnc4)CCCNC3)cc2)cc1 (centres undefined) | 53.4
* OCCCCC#Cc1cncc(OCC2(Cc3cccc(Cl)c3)CCCNC2)c1 (centres undefined) | 12.8

Value lookup for inhibition; key = `Clc1ccc(CC2(COc3cccnc3)CCNCC2)cc1Cl` 27.2

Next molecule: `Clc1ccc(C[C@]2(COc3cccnc3)CCCNC2)cc1Cl` 27.2

----------
SYSTEM: Neuronal acetylcholine receptor; alpha4/beta2 (Homo sapiens) (UniProt P17787+P43681)
ASSAY_COMMENT: Agonist activity at alpha4beta2 nAChR (unknown origin) at -60 mV holding potential incubated for 1 sec followed by 60 secs compound washout
Assay type: protein-complex assay
The source made the active and inactive calls. The calls are words filed in the database; no cut-off is given here.
REPORTED_ENDPOINT: Activity

// worked examples, Activity included
* OCCCCC#Cc1cncc(OCC2(Cc3cccc(Cl)c3)CCCNC2)c1 (stereo not given) | inactive
* Clc1ccc(C[C@]2(COc3cccnc3)CCCNC2)cc1Cl | inactive
* Clc1ccc(C[C@@]2(COc3cccnc3)CCCNC2)cc1Cl | inactive
* Clc1ccc(CC2(COc3cccnc3)CCNCC2)cc1Cl | inactive

Query compound follows.
Value lookup for Activity; key = FC(F)(F)c1cccc(CC2(COc3cccnc3)CCCNC2)c1 (stereo not given) inactive

----------
SYSTEM: Neuronal acetylcholine receptor subunit alpha-7 (Homo sapiens)
ASSAY_COMMENT: Partial agonist activity at human alpha7 nAChR at 100 uM at -60 mV holding potential incubated for 1 sec followed by 60 secs compound washout relative to acetylcholine
Would you please tag the item t when its Efficacy is 10% or above, and f when it is below?

- Cc1cccc(CC2(COc3cccnc3)CCCNC2)c1 (stereo not drawn): t

Now consider a different compound.
Given Cc1ccc(CC2(COc3cccnc3)CCCNC2)cc1 (stereo not drawn) , state whether its Efficacy is at least 10%. t

----------
Observed Ki values for Acetylcholine-binding protein (Lymnaea stagnalis, UniProt P58154) are listed in what follows.
Just the number in nM, nothing appended.

- OCCCCC#Cc1ccc(OCC2(Cc3cccc(Cl)c3)CCCNC2)cn1 (stereo not drawn): 16
- Clc1cccc(CC2(COc3ccc(Br)nc3)CCCNC2)c1 (stereo not drawn): 11.4

Query compound follows.
Value lookup for Ki; key = Clc1ccc(CC2(COc3cccnc3)CCCNC2)cc1 (stereo not drawn) 9.77
